Sourced from ChEMBL document CHEMBL3580600

biological target: UniProtKB Q61586
pIC50: −log10 of the molar value.
Measurement name: pIC50

Previously resolved entries follow.
CCCCCCCCS(=O)(=O)Nc1ccc(-c2ccc(O)cc2)cc1C(=O)O    4.33
CCCCCCCCS(=O)(=O)Nc1ccc(C(=O)c2ccc(-c3ccccc3)cc2)cc1C(=O)O    4.89
CCCCCCCCS(=O)(=O)Nc1ccc(CCc2ccc(OC)cc2)cc1C(=O)O    4.58

[P] CCCCCCCCS(=O)(=O)Nc1ccc(/C=C/c2ccccc2)cc1C(=O)O
[Q] CCCCCCCCS(=O)(=O)Nc1ccc(C(=O)c2ccc(OC)cc2)cc1C(=O)O
Look at P and Q . Which one has the lower recorded pIC50 number? Reply with the label of the item you choose.
Q

###

Molecular target: Glycerol-3-phosphate acyltransferase 1, mitochondrial (Mus musculus)
Sequence (Q61586 whole entry): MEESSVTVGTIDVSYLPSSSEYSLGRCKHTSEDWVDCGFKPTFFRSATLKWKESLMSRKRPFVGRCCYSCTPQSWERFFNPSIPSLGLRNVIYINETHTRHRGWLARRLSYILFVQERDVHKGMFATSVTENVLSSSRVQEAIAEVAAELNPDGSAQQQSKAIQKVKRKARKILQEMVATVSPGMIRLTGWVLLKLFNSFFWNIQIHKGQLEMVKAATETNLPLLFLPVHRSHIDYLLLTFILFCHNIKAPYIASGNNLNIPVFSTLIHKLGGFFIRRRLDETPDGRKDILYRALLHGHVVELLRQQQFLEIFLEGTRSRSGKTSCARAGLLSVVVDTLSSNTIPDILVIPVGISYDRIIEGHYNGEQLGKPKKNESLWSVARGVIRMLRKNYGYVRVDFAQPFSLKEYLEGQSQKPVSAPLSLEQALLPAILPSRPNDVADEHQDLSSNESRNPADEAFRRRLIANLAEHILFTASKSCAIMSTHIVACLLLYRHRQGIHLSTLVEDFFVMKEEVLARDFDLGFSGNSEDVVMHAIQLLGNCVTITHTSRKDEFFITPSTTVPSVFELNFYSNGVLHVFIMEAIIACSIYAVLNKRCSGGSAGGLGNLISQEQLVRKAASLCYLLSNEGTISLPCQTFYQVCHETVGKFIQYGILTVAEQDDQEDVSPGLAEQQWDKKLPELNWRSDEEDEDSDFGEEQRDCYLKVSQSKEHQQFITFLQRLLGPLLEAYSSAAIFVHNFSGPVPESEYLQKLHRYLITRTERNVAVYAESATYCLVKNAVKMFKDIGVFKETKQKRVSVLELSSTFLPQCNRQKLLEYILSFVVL
pIC50: −log10 of the molar value.
Measurement name: pIC50

Previously resolved entries follow.
CCCCCCCCS(=O)(=O)Nc1ccc(-c2cccc(Cl)c2)cc1C(=O)O    5.05
CCCCCCCCS(=O)(=O)Nc1ccc(C(=O)c2ccccc2OC)cc1C(=O)O    4.23
CCCCCCCCS(=O)(=O)Nc1ccc(-c2ccccc2-c2ccccc2)cc1C(=O)O    5.00
CCCCCCCCS(=O)(=O)Nc1ccc(-c2ccc(-c3ccccc3)cc2)cc1C(=O)O    4.54
CCCCCCCCS(=O)(=O)Nc1cc(-c2ccccc2Cl)ccc1C(=O)O    4.57
CCCCCCCCS(=O)(=O)Nc1cc(-c2cccc(F)c2)ccc1C(=O)O    4.49
CCCCCCCCS(=O)(=O)Nc1cc(-c2ccc(CCCC)cc2)ccc1C(=O)O    4.80
CCCCCCCCS(=O)(=O)Nc1cc(-c2ccccc2OC)ccc1C(=O)O    4.79
CCCCCCCCS(=O)(=O)Nc1cc(/C=C/c2ccccc2)ccc1C(=O)O    4.42
CCCCCCCCS(=O)(=O)Nc1cc(CCc2ccccc2)ccc1C(=O)O    4.43

[P] CCCCCCCCS(=O)(=O)Nc1cc(-c2ccccc2F)ccc1C(=O)O
[Q] CCCCCCCCS(=O)(=O)Nc1ccc(-c2ccc(OC)cc2)cc1C(=O)O
Look at P and Q . Which one has the lower recorded pIC50 number? Reply with the label of the item you choose.
P
(P: 4.33, Q: 4.71)
